Quick reference for pIC50 among some compounds
# ASSAYED SYSTEM: Prostaglandin E synthase, mPGES-1 (Homo sapiens) (UniProt O14684)
# Sequence (O14684 whole entry, looked up): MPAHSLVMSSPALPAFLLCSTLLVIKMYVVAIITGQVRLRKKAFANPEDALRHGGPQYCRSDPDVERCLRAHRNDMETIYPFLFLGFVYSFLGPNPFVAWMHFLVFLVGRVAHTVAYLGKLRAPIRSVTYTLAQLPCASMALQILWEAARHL
# METHOD DESCRIPTION: Inhibition of Prostaglandin E2 synthase-1 in IL1-beta stimulated microsomal fraction of human A549 cell assessed as PGE2 level by RP-HPLC
pIC50: −log10 of the molar value.

Oc1ccc(-c2ccc(-c3cn(CCCc4ccccc4)nn3)cc2)cc1: < 4.52

input: Param readout= pIC50; system= Prostaglandin E synthase, mPGES-1 (Homo sapiens) (UniProt O14684); entry= `O=C(O)c1ccc(Cn2cc(-c3ccc(-c4ccccc4)cc3)nn2)c([N+](=O)[O-])c1` ; returns value.
output: 5.49

input: Param readout= pIC50; system= Prostaglandin E synthase, mPGES-1 (Homo sapiens) (UniProt O14684); entry= `CN(C)c1cccc2c(S(=O)(=O)Nc3ccc(-c4ccc(-c5cn(CCCc6ccccc6)nn5)cc4)cc3)cccc12` ; returns value.
output: < 4.52

input: Param readout= pIC50; system= Prostaglandin E synthase, mPGES-1 (Homo sapiens) (UniProt O14684); entry= `FC(F)(F)c1ccc(Cl)c(OCc2ccccc2-c2ccc(-c3cn(CCCc4ccccc4)nn3)cc2)c1` ; returns value.
output: < 4.52

input: Param readout= pIC50; system= Prostaglandin E synthase, mPGES-1 (Homo sapiens) (UniProt O14684); entry= `Cc1ccccc1CCn1cc(-c2ccc(-c3ccc(N)cc3)cc2)nn1` ; returns value.
output: < 4.52

input: Param readout= pIC50; system= Prostaglandin E synthase, mPGES-1 (Homo sapiens) (UniProt O14684); entry= `O=C(O)c1ccc(S(=O)(=O)n2cc(-c3ccc(-c4ccccc4COc4cccc5ccccc45)cc3)nn2)cc1` ; returns value.
output: < 4.52

input: Param readout= pIC50; system= Prostaglandin E synthase, mPGES-1 (Homo sapiens) (UniProt O14684); entry= `Cc1ccccc1CCn1cc(-c2ccc(-c3ccccc3COc3cc(C(F)(F)F)ccc3Cl)cc2)nn1` ; returns value.
output: < 4.52

input: Param readout= pIC50; system= Prostaglandin E synthase, mPGES-1 (Homo sapiens) (UniProt O14684); entry= `O=Cc1ccc(-c2c(Cc3ccccc3)nnn2CSc2ccccc2)cc1` ; returns value.
output: < 4.52

input: Param readout= pIC50; system= Prostaglandin E synthase, mPGES-1 (Homo sapiens) (UniProt O14684); entry= `Oc1ccc(-c2ccc(-c3cn(CSc4ccccc4)nn3)cc2)cc1` ; returns value.
output: < 4.52

input: Param readout= pIC50; system= Prostaglandin E synthase, mPGES-1 (Homo sapiens) (UniProt O14684); entry= `Cc1ccccc1CCn1cc(-c2ccc(-c3ccccc3COc3cccc4ccccc34)cc2)nn1` ; returns value.
output: < 4.52

input: Param readout= pIC50; system= Prostaglandin E synthase, mPGES-1 (Homo sapiens) (UniProt O14684); entry= `c1ccc(CCCn2cc(-c3ccc(-c4cc5ccccc5c5ccccc45)cc3)nn2)cc1` ; returns value.
output: < 4.52

input: Param readout= pIC50; system= Prostaglandin E synthase, mPGES-1 (Homo sapiens) (UniProt O14684); entry= `Oc1cccc(-c2ccc(-c3cn(CSc4ccccc4)nn3)cc2)c1` ; returns value.
output: < 4.52

input: Param readout= pIC50; system= Prostaglandin E synthase, mPGES-1 (Homo sapiens) (UniProt O14684); entry= `c1ccc(CCCn2cc(-c3ccc(-c4ccc(Oc5ccccc5)cc4)cc3)nn2)cc1` ; returns value.
output: < 4.52

input: Param readout= pIC50; system= Prostaglandin E synthase, mPGES-1 (Homo sapiens) (UniProt O14684); entry= `c1ccc(CCCn2cc(-c3ccc(-c4ccccc4COc4cccc5ccccc45)cc3)nn2)cc1` ; returns value.
output: < 4.52

input: Param readout= pIC50; system= Prostaglandin E synthase, mPGES-1 (Homo sapiens) (UniProt O14684); entry= `O=C(OCc1cn(CSc2ccccc2)nn1)c1ccccc1` ; returns value.
output: < 4.52
